# Subject of test: SIRT1 (Homo sapiens, UniProt Q96EB6)
# Run description: Trp mass spectrometry assay of SIRT1 activity (EC1.5, percent maximum activation)
# Type: biochemical
# Measurement context: Trp mass spectrometry assay; EC1.5 = concentration giving 150% activation of SIRT1
Value kind: TRP Activity (EC1.5)

[[record]]
cpd_smiles = "Cc1cc(-c2ccc3c(n2)N(C(=O)NC2CCC2)[C@H]2CCN3C2)ccn1"
obs_value = "B (EC1.5 1-25 μM)"

[[record]]
cpd_smiles = "O=C(Nc1cncc(OC[C@H](O)CO)n1)N1c2nc(-c3cccc(C(F)(F)F)c3)c(Cl)cc2N2CC[C@H]1C2"
obs_value = "A (EC1.5<1 μM)"

[[record]]
cpd_smiles = "Cc1ccc(-c2nc3c(cc2Cl)N2CC[C@@H](C2)N3C(=O)Nc2ccccn2)cn1"
obs_value = "B (EC1.5 1-25 μM)"

[[record]]
cpd_smiles = "Cl.O=C(Nc1cccc(OC[C@@H](O)CO)n1)N1c2nc(-c3cccc(C(F)(F)F)c3)c(Cl)cc2N2CC[C@H]1C2"
obs_value = "A (EC1.5<1 μM)"

[[record]]
cpd_smiles = "Cc1cc2c(nc1-c1cccc(C(F)(F)F)c1)N(C(=O)Nc1ccnc(OC[C@@H](O)CO)c1)[C@H]1CCN2C1"
obs_value = "A (EC1.5<1 μM)"


TRP Activity (EC1.5) lookup needed for Cc1cc(-c2nc3c(cc2Cl)N2CC[C@@H](C2)N3C(=O)Nc2ccnc(OC[C@H](O)CO)c2)ccn1 , thanks.
B (EC1.5 1-25 μM)

Repeat for the following compound: O=C(Nc1cnccn1)N1c2nc(-c3ccnc(C4CC4)c3)ccc2N2CC[C@H]1C2
A (EC1.5<1 μM)

Repeat for the following compound: Cc1cc(-c2ccc3c(n2)N(C(=O)Nc2ncn(C)n2)[C@H]2CCN3C2)ccn1
B (EC1.5 1-25 μM)

Repeat for the following compound: Cc1ncc(-c2ccc3c(n2)N(C(=O)Nc2cnccn2)[C@H]2CCN3C2)cn1
B (EC1.5 1-25 μM)

* * *

# Subject of test: SIRT1 (Homo sapiens)
# Sequence (Q96EB6 1-747): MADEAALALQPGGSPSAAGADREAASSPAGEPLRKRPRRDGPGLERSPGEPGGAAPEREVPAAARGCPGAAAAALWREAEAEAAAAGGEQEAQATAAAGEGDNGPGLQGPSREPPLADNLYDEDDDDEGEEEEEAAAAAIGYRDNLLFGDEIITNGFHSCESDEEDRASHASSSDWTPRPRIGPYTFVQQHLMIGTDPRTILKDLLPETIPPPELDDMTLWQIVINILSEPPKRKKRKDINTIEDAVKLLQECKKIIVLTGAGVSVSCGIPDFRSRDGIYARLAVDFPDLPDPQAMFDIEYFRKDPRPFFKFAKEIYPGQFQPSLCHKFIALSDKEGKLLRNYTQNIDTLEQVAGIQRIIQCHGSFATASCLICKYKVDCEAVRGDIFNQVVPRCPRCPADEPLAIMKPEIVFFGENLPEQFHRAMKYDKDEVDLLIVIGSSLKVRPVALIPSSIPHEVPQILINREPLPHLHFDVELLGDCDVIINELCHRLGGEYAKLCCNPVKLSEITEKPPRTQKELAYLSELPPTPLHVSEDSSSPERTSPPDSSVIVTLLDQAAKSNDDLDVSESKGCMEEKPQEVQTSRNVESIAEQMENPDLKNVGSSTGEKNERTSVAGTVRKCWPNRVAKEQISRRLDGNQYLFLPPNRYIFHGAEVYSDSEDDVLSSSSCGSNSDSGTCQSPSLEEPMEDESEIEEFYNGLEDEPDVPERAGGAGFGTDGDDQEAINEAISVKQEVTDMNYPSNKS
# Run description: Trp mass spectrometry assay of SIRT1 activity (EC1.5, percent maximum activation)
# Type: biochemical
# Measurement context: Trp mass spectrometry assay; EC1.5 = concentration giving 150% activation of SIRT1
Counter-ions that a name gives are not always drawn.
Value kind: TRP Activity (EC1.5)

// worked examples, TRP Activity (EC1.5) included
[[record]]
compound = "Cc1cc(-c2nc3c(cc2Cl)N2CC[C@@H](C2)N3C(=O)Nc2cncc(OC[C@@H](O)CO)n2)ccn1"
value_kind = "TRP Activity (EC1.5)"
obs_value = "C (EC1.5>25 μM)"

[[record]]
compound = "O=C(Nc1cncc(OCCCO)n1)N1c2nc(-c3cccc(C(F)(F)F)c3)c(Cl)cc2N2CC[C@H]1C2"
value_kind = "TRP Activity (EC1.5)"
obs_value = "A (EC1.5<1 μM)"

[[record]]
compound = "O=C(Nc1cc(OC[C@H](O)CO)ccn1)N1c2nc(-c3cccc(C(F)(F)F)c3)c(Cl)cc2N2CC[C@H]1C2 [Example 32, Hydrochloride]"
value_kind = "TRP Activity (EC1.5)"
obs_value = "B (EC1.5 1-25 μM)"

[[record]]
compound = "Cc1cc(-c2nc3c(cc2Cl)N2CC[C@@H](C2)N3C(=O)Nc2ccnc(O[C@@H]3CCOC3)n2)ccn1"
value_kind = "TRP Activity (EC1.5)"
obs_value = "C (EC1.5>25 μM)"


TRP Activity (EC1.5) lookup needed for O=C(Nc1ccc(OC[C@H](O)CO)cn1)N1c2nc(-c3cccc(C(F)(F)F)c3)c(Cl)cc2N2CC[C@H]1C2 , thanks.
A (EC1.5<1 μM)

Repeat for the following compound: O=C(Nc1ccnc(OC[C@H](O)CO)c1)N1c2nc(-c3cccc(C(F)(F)F)c3)ccc2N2CC[C@H]1C2
A (EC1.5<1 μM)

Repeat for the following compound: Cc1cc(-c2ccc3c(n2)N(C(=O)Nc2cncnc2)[C@H]2CCN3C2)ccn1
C (EC1.5>25 μM)

* * *

# Subject of test: SIRT1 (Homo sapiens)
# Run description: Trp mass spectrometry assay of SIRT1 activity (EC1.5, percent maximum activation)
# Type: biochemical
# Measurement context: Trp mass spectrometry assay; EC1.5 = concentration giving 150% activation of SIRT1
Value kind: TRP Activity (EC1.5)

[[record]]
cpd_smiles = "CNc1cc(-c2ccc3c(n2)N(C(=O)Nc2cnccn2)[C@H]2CCN3C2)ccn1"
value_kind = "TRP Activity (EC1.5)"
obs_value = "B (EC1.5 1-25 μM)"

[[record]]
cpd_smiles = "Cc1cc(-c2ccc3c(n2)N(C(=O)N2CCOCC2)[C@H]2CCN3C2)ccn1"
value_kind = "TRP Activity (EC1.5)"
obs_value = "C (EC1.5>25 μM)"

[[record]]
cpd_smiles = "Cc1cc(-c2nc3c(cc2Cl)N2CC[C@@H](C2)N3C(=O)Nc2cc(OC[C@H](O)CO)ccn2)ccn1"
value_kind = "TRP Activity (EC1.5)"
obs_value = "B (EC1.5 1-25 μM)"

[[record]]
cpd_smiles = "Cc1cc(-c2ccc3c(n2)N(C(=O)NCCc2ccccn2)[C@H]2CCN3C2)ccn1.Cl"
value_kind = "TRP Activity (EC1.5)"
obs_value = "C (EC1.5>25 μM)"


Now examine the next entry.
TRP Activity (EC1.5) lookup needed for Cc1ccc(-c2ccc3c(n2)N(C(=O)Nc2cnccn2)[C@H]2CCN3C2)c(C)n1 , thanks.
B (EC1.5 1-25 μM)

Values were extracted from patent US20170355705A1.
